A collection of molecules and their measured composite z-score
target: Epidermal growth factor receptor (Homo sapiens) (UniProt P00533); experiment: compounds binding epidermal growth factor receptor – biochemical, small-molecule microarray, 635 nm fluorescence, primary screen (AID 1104); conditions: EGFR binding, higher = more signal;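 also: score merges 667 nm emission intensity with spot signal to noise over triplicate slides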
Sequence (P00533 whole entry, looked up): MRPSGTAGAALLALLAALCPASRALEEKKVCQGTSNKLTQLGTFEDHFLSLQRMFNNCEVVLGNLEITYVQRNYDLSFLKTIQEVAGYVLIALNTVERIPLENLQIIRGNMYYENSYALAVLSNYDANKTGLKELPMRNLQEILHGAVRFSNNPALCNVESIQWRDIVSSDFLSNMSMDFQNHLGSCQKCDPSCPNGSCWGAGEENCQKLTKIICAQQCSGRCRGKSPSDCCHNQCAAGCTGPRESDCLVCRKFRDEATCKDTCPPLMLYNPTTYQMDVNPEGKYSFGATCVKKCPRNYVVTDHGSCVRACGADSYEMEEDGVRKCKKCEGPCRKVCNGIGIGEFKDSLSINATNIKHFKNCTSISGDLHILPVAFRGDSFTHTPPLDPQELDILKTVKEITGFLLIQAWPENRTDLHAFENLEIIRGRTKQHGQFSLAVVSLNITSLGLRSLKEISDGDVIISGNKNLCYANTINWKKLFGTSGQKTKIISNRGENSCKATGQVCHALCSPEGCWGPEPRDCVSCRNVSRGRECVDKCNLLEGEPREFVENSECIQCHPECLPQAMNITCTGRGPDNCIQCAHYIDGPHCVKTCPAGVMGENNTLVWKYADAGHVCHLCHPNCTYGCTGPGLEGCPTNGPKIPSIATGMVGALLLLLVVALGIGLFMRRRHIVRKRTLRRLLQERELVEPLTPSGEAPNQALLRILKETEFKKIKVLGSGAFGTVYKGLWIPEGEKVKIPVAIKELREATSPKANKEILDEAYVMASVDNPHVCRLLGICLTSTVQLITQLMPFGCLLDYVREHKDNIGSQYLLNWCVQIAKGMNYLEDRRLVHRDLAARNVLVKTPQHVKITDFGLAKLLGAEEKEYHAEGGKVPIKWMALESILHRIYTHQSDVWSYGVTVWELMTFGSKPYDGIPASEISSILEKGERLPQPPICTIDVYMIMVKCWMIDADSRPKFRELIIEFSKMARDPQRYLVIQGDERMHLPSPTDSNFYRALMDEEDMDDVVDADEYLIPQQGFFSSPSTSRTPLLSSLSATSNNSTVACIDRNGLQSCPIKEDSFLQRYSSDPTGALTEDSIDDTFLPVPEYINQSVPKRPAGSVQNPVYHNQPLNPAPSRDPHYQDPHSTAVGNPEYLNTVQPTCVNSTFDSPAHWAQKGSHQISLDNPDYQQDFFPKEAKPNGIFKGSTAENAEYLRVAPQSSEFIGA

MOLECULE: COc1cc2c(cc1O)C=[N+](C)CC2
composite z-score: -0.414
--
MOLECULE: CCCc1cc2c(n1Cc1cccc(Cl)c1)C(C)C1CN(C(=O)c3ccccc3)C(C)(C(=O)OC)C21 (stereo not drawn)
composite z-score: -0.458
--
MOLECULE: C[C@H]1O[C@H]2C3=C(C(=O)[C@@H]4O[C@@H]4[C@@H]3O)[C@@H]1[C@@H]1[C@@H](C)OC=C3[C@@H](O)[C@H]4O[C@H]4C(=O)[C@]312
composite z-score: -0.132
--
MOLECULE: COC(=O)[C@H]1[C@H](c2ccccc2)C(=O)[C@]2(O)c3ccccc3O[C@@]12c1ccccc1
composite z-score: 0.437
--
MOLECULE: C=C(CC1(CNP(=O)(c2ccccc2)c2ccccc2)CC1)c1ccccc1
composite z-score: 0.187
--
MOLECULE: COC(=O)[C@@]1(Cc2ccc(F)cc2)[C@H]2c3cc(C(=O)N(C)C)[nH]c3C[C@H]2CN1C(=O)c1ccccc1
composite z-score: -0.157
--
MOLECULE: C=C(CC1(C(C)NP(=O)(c2ccccc2)c2ccccc2)CC1)c1ccccc1 (stereo not drawn)
composite z-score: -0.636
--
MOLECULE: CN1CCC(c2ccc(CO)cc2)=CC1c1cccs1 (stereo not drawn)
composite z-score: 0.0626

----------
assay: probe aLefty1 binding on compound microarray – biochemical, small-molecule microarray, 635/667 nm fluorescence, primary screen (AID 1153); details: higher = more signal; small-molecule microarray, probe aLefty1, fluorescence unless noted;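 also: score merges spot fluorescence with signal-to-noise ratio from the scanned slide images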
A collection of molecules and their measured composite z-score

MOLECULE: OCc1ccc(C2=CC(c3cccs3)N(Cc3cccc(OC(F)(F)F)c3)CC2)cc1 (stereo not drawn)
composite z-score: -0.148

MOLECULE: C[C@H]1O[C@H]2C3=C(C(=O)[C@@H]4O[C@@H]4[C@@H]3O)[C@@H]1[C@@H]1[C@@H](C)OC=C3[C@@H](O)[C@H]4O[C@H]4C(=O)[C@]312
composite z-score: -0.321

MOLECULE: c1ccc(-c2cc3c(nc2-c2ccccc2)CCNC3)cc1
composite z-score: -0.101

MOLECULE: CCCC=C(CCC)[C@@H](NP(=O)(c1ccccc1)c1ccccc1)c1ccccc1
composite z-score: 0.547

MOLECULE: C[C@@H]1Cc2c(cnc3c2CN(C)CC3)CO1
composite z-score: -0.152

MOLECULE: COC(=O)[C@H]1[C@@H](O)[C@@]2(O)c3c(OC)cc(OC)cc3O[C@@]2(c2ccc(OC)cc2)[C@@H]1c1ccccc1
composite z-score: -0.19

MOLECULE: COC(=O)NCC=Cc1nc(CCC=CC(=O)O[C@H]2CC3CC(=O)O[C@@H](C=CCC(C)C)C[C@@H]4CC[C@H](C)[C@@H](C[C@@H](OC)C[C@H](C2)O3)O4)co1
composite z-score: -0.213

MOLECULE: C=C(CC1(CNP(=O)(c2ccccc2)c2ccccc2)CC1)c1ccccc1
composite z-score: 0.241

----------
target: Torsin-1A (Homo sapiens) (UniProt O14656); test: TOR1A wild-type binding on microarray – cell lysate, small-molecule microarray, lysate, 635/667 nm, primary screen (AID 1149); conditions: COS7 hTOR1A-WT lysate, 635 nm fluorescence, higher = more signal
Sequence (O14656 whole entry, looked up): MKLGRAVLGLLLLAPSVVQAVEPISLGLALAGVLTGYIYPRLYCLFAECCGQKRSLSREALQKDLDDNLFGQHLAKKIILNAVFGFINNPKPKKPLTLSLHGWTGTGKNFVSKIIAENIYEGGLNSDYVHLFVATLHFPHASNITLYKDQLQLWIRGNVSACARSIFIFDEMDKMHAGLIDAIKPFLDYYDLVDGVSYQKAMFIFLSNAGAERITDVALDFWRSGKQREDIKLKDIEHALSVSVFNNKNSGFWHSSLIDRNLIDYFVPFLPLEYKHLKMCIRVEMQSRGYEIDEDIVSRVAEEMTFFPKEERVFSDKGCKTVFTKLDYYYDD
Note to self: values exactly at -0.07 are Satisfied. So composite z-score at or above -0.07 is Satisfied, below is Not satisfied.

MOLECULE: CCCc1cc2c(n1CCO)C(C)C1CN(C(=O)c3ccccc3)C(C)(C(=O)OC)C21 (stereo unspecified)
GROUP: Satisfied
//
MOLECULE: CCCc1cc2c(n1Cc1ccco1)C(C)C1CN(C(=O)c3ccccc3)C(C)(C(=O)OC)C21 (stereo unspecified)
GROUP: Satisfied
//
MOLECULE: CCCc1cc2c(n1Cc1ccc(C)cc1)C(C)C1CN(C(=O)c3ccccc3)C(C)(C(=O)OC)C21 (stereo unspecified)
GROUP: Satisfied
//
MOLECULE: C[C@H]1O[C@H]2C3=C(C(=O)[C@@H]4O[C@@H]4[C@@H]3O)[C@@H]1[C@@H]1[C@@H](C)OC=C3[C@@H](O)[C@H]4O[C@H]4C(=O)[C@]312
GROUP: Satisfied
//
MOLECULE: COC(=O)[C@H]1C(=O)c2ccccc2O[C@@](C(=O)OC)(c2ccccc2)[C@@H]1c1ccccc1
GROUP: Satisfied
//
MOLECULE: C=C(CC1(C(C)NP(=O)(c2ccccc2)c2ccccc2)CC1)c1ccccc1 (stereo unspecified)
GROUP: Not satisfied
//
MOLECULE: COC(=O)[C@@]1(Cc2ccccc2)[C@H]2c3cc(C(=O)N(C)C)n(C)c3C[C@H]2CN1C(=O)c1ccccc1
GROUP: Satisfied
//
MOLECULE: COC(=O)[C@@]1(Cc2ccccc2)[C@H]2c3cc(C(=O)N(C)C)[nH]c3C[C@H]2CN1C(=O)c1ccccc1
GROUP: Not satisfied
//
MOLECULE: COc1cc2c(cc1O)C=[N+](C)CC2
GROUP: Not satisfied
//
MOLECULE: COc1cc2c(cc1O)C(C)N(C)CC2 (stereo unspecified)
GROUP: Not satisfied
//
MOLECULE: c1ccc(-c2cc3c(nc2-c2ccccc2)CCNC3)cc1
GROUP: Satisfied
//
MOLECULE: OCc1ccc(C2=CC(C3CC3)N(Cc3sc4ccccc4c3Cl)CC2)cc1 (stereo unspecified)
GROUP: Satisfied
//
MOLECULE: C=C(CC1(CNP(=O)(c2ccccc2)c2ccccc2)CC1)c1ccccc1
GROUP: Not satisfied
//
MOLECULE: OCc1ccc(C2=CC(c3cccs3)N(Cc3cccc(OC(F)(F)F)c3)CC2)cc1 (stereo unspecified)
GROUP: Satisfied
//
MOLECULE: COC(=O)C1(C)C=C2C(=C(C)C(=O)C2C)CN1 (stereo unspecified)
GROUP: Satisfied

Origin of values: PubChem BioAssay
